# Test system: OVCAR-8 ovarian
# protocol-summary: NCI-60 one-dose screen, 48 h (100 = growth as untreated, 0 = no growth, -100 = all killed)
# cond: 10 µM unless noted
# Procedure: Growth inhibition of the OVCAR-8 human tumor cell line is measured as a screen for anti-cancer activity. Cells are grown in 96 well plates and exposed to the test compound for 48 hours. Compounds are tested at a single concentration, which is 10^-5 M for most compounds. The reported endpoint is percent growth (GI% or GIPRCNT), where numbers from 0 - 100% represent growth inhibition, and numbers from -100% - 0 represent cell death. For example, a value of 40 represents 60% growth inhibition. […]
The panel holds about 83,000 compounds, 20% with a hit somewhere; the sample as a whole holds those more often.
Tick label 1 if growth is 90% or greater. Tick label 0 if growth is less than 90%.

>>> classification("COc1ccc2cc(-c3nn(-c4ccc(C(=O)O)cc4)cc3CO)ccc2c1")
"label 1"
>>> classification("COc1cc(-c2ccc3c(c2)NC(=O)/C3=C\\c2ccc[nH]2)ccc1O")
"label 0"
>>> classification("O=CNc1ccc2c(c1)Cc1cccc(NC=O)c1-2")
"label 1"
>>> classification("COc1ccc(C2C(C#N)=C(N)Oc3n[nH]c(-c4cccs4)c32)cc1I (stereo not drawn)")
"label 1"
>>> classification("CC(=O)O[C@H]1C(=O)[C@@]2(C)[C@H]([C@H](OC(=O)c3ccccc3)[C@]3(O)C[C@H](OC(=O)[C@H](OC(=O)CCC(=O)OC4CCC(S/N=C(N)/N=C(\\N)N(C)C)CC4)[C@@H](NC(=O)c4ccccc4)c4ccccc4)C(C)=C1C3(C)C)[C@]1(OC(C)=O)CO[C@@H]1C[C@@H]2O (stereo partly drawn)")
"label 0"
>>> classification("CC[N+](CC)=c1sc2c(s1)C(c1ccc(Cl)cc1)Oc1ccc(Cl)cc1-2 (stereo not drawn)")
"label 0"
>>> classification("COc1cc2nc(N3CCCC3)nc(NCC3CCCCC3)c2cc1OC")
"label 0"

====

# Test system: OVCAR-3 ovarian
# protocol-summary: NCI-60 one-dose screen, 48 h
# cond: 10 µM unless noted
The panel holds about 83,000 compounds, 20% with a hit somewhere; the sample as a whole holds those more often. Activity calls are given as the source filed them. Rule for the calls: active = growth percent below 10; inactive = the rest.
Outcomes: TRUE = active, FALSE = inactive

>>> classification("OCCN1CCN(c2nc(Nc3ccc(-c4nc5ccccc5[nH]4)cc3)c3cn[nH]c3n2)CC1")
"TRUE"
>>> classification("C#Cc1cccc(NC(=O)c2ccccc2NC(=O)CCl)c1")
"FALSE"
>>> classification("O=C(COc1cccc(/C=C2\\COc3ccc(Cl)cc3C2=O)c1)c1ccc(Cl)cc1")
"FALSE"
>>> classification("CNc1ccc(-c2cc(=O)oc3ccc(Cl)cc23)cc1")
"TRUE"
>>> classification("CC(=O)c1cc(C(=O)c2ccc3c(c2)Sc2ccccc2N3)n2ccccc12")
"TRUE"
>>> classification("Clc1ccc2c(NCCCNc3nc(-n4ccnc4)nc4ccccc34)ccnc2c1")
"FALSE"
>>> classification("Cc1ncc(C(=O)Nc2ccc(CN3CCN(C)CC3)c(C(F)(F)F)c2)cc1C#Cc1cnc2cccnn12")
"TRUE"
>>> classification("O=C1/C(=C/c2ccccc2)SC(=S)N1CCc1ccc(O)cc1")
"FALSE"
>>> classification("O=CNc1ccc2c(c1)Cc1cccc(NC=O)c1-2")
"FALSE"
>>> classification("COc1ccc(/C=C/c2nc(-c3n[nH]c(=O)n3-c3ccccc3)c3ccccc3n2)cc1")
"FALSE"
